Measured ΔTm accompanies every entry in the list below.
Test system: polyA-polyU (RNA, polymer) A/U
Test: UV melting at 260 nm
Conditions: PBS, I = 0.05 M, cations not specified, pH 7, r = 0.3 [compound]/[polynucleotide], error ±0.5, per base
Note: a bare number is incomplete; add the unit.

N=C(N)c1ccc2[nH]c(-c3ccc(OCc4cn(Cc5ccccc5)nn4)cc3)nc2c1: 1.14 °C
N=C(N)c1ccc2[nH]c(-c3ccc(OCc4cn(-c5ccccc5)nn4)cc3)nc2c1: 1.74 °C
Cl.Cl.N=C(N)c1ccc2[nH]c(-c3ccc(OCc4cn(-c5ccccc5Cl)nn4)cc3)nc2c1: 2.72 °C

// switching to the query compound
Request: Using the record for CC(C)NC(=N)c1ccc2[nH]c(-c3ccc(OCc4cn(-c5ccccc5)nn4)cc3)nc2c1 , report its ΔTm.
Result: 0.64 °C
